Experimental System: T1, biotinylated V112E-PNT domain (ETV6 residues 43-135, V112E, with Avitag) (human, UniProt P41212 43-135, V112E, biotin on the Avitag (~50 to 95% biotinylated))
T1 construct: ETV6, human, residues 43-135 of V112E ETV6; also called biotinylated V112E-PNT domain ligand; V112E-PNT domain ligand; source: E. coli BL21 (λDE3) co-transformed with pET21a-BirA, purified (Ni-NTA, thrombin cleavage); not shown: His6, N-terminal, cleaved; Avitag, N-terminal, kept
T1 sequence (looked up): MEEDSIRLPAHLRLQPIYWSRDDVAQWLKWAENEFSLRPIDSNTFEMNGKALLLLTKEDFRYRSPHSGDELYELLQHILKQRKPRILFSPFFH
Experiment Notes: SPR; biotinylated V112E-PNT domain ligand captured on streptavidin Sensor Chip SA, PNT domain analytes flowed; Biacore X100, 25 °C, HBS-EP+ (10 mM HEPES, 150 mM NaCl, 3 mM EDTA, 0.05% v/v Tween-20, pH 7.4); analyte 0.2-60 nM, re-run at 20-6000 nM if KD > 60 nM
Condition Parameters: both partners purified
Decide using koff alone. Strictly below 0.003 s⁻¹: YES. Equal to or above 0.003 s⁻¹: NO.

Binder	Label Class
K99A-A93D-PNT domain (domain or fragment, human, UniProt P41212 40-125, looked up, ETV6 PNT domain, human; source: E. coli BL21 (λDE3), purified (Ni-NTA, thrombin cleavage); not shown: His6, N-terminal, cleaved) ALRMEEDSIRLPAHLRLQPIYWSRDDVAQWLKWAENEFSLRPIDSNTFEMNGKDLLLLTAEDFRYRSPHSGDVLYELLQHILKQRK	YES
R80A-A93D-PNT domain (domain or fragment, human, UniProt P41212 40-125, looked up, ETV6 PNT domain, human; source: E. coli BL21 (λDE3), purified (Ni-NTA, thrombin cleavage); not shown: His6, N-terminal, cleaved) ALRMEEDSIRLPAHLRLQPIYWSRDDVAQWLKWAENEFSLAPIDSNTFEMNGKDLLLLTKEDFRYRSPHSGDVLYELLQHILKQRK	YES
D111A-A93D-PNT domain (domain or fragment, human, UniProt P41212 40-125, looked up, ETV6 PNT domain, human; source: E. coli BL21 (λDE3), purified (Ni-NTA, thrombin cleavage); not shown: His6, N-terminal, cleaved) ALRMEEDSIRLPAHLRLQPIYWSRDDVAQWLKWAENEFSLRPIDSNTFEMNGKDLLLLTKEDFRYRSPHSGAVLYELLQHILKQRK	YES
L79A-A93D-PNT domain (domain or fragment, human, UniProt P41212 40-125, looked up, ETV6 PNT domain, human; source: E. coli BL21 (λDE3), purified (Ni-NTA, thrombin cleavage); not shown: His6, N-terminal, cleaved) ALRMEEDSIRLPAHLRLQPIYWSRDDVAQWLKWAENEFSARPIDSNTFEMNGKDLLLLTKEDFRYRSPHSGDVLYELLQHILKQRK	YES
L116A-A93D-PNT domain (domain or fragment, human, UniProt P41212 40-125, looked up, ETV6 PNT domain, human; gene purchased commercially (Biomatik); source: E. coli BL21 (λDE3), purified (Ni-NTA, thrombin cleavage); not shown: His6, N-terminal, cleaved) ALRMEEDSIRLPAHLRLQPIYWSRDDVAQWLKWAENEFSLRPIDSNTFEMNGKDLLLLTKEDFRYRSPHSGDVLYEALQHILKQRK	YES
A93D-PNT domain (ETV6 residues 40-125 with the A93D mutation) (domain or fragment, human, UniProt P41212 40-125, looked up, ETV6 PNT domain fragment, human, residues 40-125; expressed as residues 1-125 and cut by thrombin at the internal site V37-P38-R39/A40; 15N- or 13C/15N-labelled or unlabelled in NMR; also called A93D-PNT domain analyte; source: E. coli BL21 (λDE3), purified (Ni-NTA, thrombin cleavage, Superdex S75; size exclusion omitted for SPR); not shown: His6, N-terminal, cleaved) ALRMEEDSIRLPAHLRLQPIYWSRDDVAQWLKWAENEFSLRPIDSNTFEMNGKDLLLLTKEDFRYRSPHSGDVLYELLQHILKQRK	YES
Y114A-A93D-PNT domain (domain or fragment, human, UniProt P41212 40-125, looked up, ETV6 PNT domain, human; source: E. coli BL21 (λDE3), purified (Ni-NTA, thrombin cleavage); not shown: His6, N-terminal, cleaved) ALRMEEDSIRLPAHLRLQPIYWSRDDVAQWLKWAENEFSLRPIDSNTFEMNGKDLLLLTKEDFRYRSPHSGDVLAELLQHILKQRK	NO
E115A-A93D-PNT domain (domain or fragment, human, UniProt P41212 40-125, looked up, ETV6 PNT domain, human; source: E. coli BL21 (λDE3), purified (Ni-NTA, thrombin cleavage); not shown: His6, N-terminal, cleaved) ALRMEEDSIRLPAHLRLQPIYWSRDDVAQWLKWAENEFSLRPIDSNTFEMNGKDLLLLTKEDFRYRSPHSGDVLYALLQHILKQRK	YES
I48A-A93D-PNT domain (domain or fragment, human, UniProt P41212 40-125, looked up, ETV6 PNT domain, human; source: E. coli BL21 (λDE3), purified (Ni-NTA, thrombin cleavage); not shown: His6, N-terminal, cleaved) ALRMEEDSARLPAHLRLQPIYWSRDDVAQWLKWAENEFSLRPIDSNTFEMNGKDLLLLTKEDFRYRSPHSGDVLYELLQHILKQRK	NO
S78A-A93D-PNT domain (domain or fragment, human, UniProt P41212 40-125, looked up, ETV6 PNT domain, human; source: E. coli BL21 (λDE3), purified (Ni-NTA, thrombin cleavage); not shown: His6, N-terminal, cleaved) ALRMEEDSIRLPAHLRLQPIYWSRDDVAQWLKWAENEFALRPIDSNTFEMNGKDLLLLTKEDFRYRSPHSGDVLYELLQHILKQRK	NO

The reported numbers originate from paper PMC7949025.
